Below, each entry is listed alongside its reported Emax.
Tested on: HEP-G2 cells
Assay Summary: cells
Measurement Context: Homo sapiens, HepG2, read-out: HEP-G2 Emax (% of FCCP), HEP-G2 cells, maximal stimulation relative to FCCP
# unit: % | format: bare number

Some solved entries appear below for comparison.
1. Cc1c(Br)cc(C(C)(C)C)c(O)c1C(=O)Nc1ccc([N+](=O)[O-])cc1Cl :: 100
2. O=C(Nc1ccc([N+](=O)[O-])c(C(F)(F)F)c1)c1ccc(F)c(C(F)(F)F)c1 :: 85
3. CCCC[P+](CCCC)(CCCC)Cc1cc(C(C)(C)C)c(O)c(C(C)(C)C)c1.[Br-] :: 70
4. O=C(Nc1ccc([N+](=O)[O-])cc1Cl)c1cccc(-c2ccccc2)c1O :: 94
5. Cc1c(Br)cc(C(C)C)c(O)c1C(=O)Nc1ccc([N+](=O)[O-])cc1C(F)(F)F :: 90

Shifting focus to the compound that follows.
Asked: For the compound shown here, N#CC(C#N)=Cc1c(Cl)[nH]c2ccccc12 , give the reported Emax.
Given back: 80
